Data provenance: patent US10675360B2

# reported % Remaining; entries follow
# method.description: Stability in mouse plasma
# Type: in vitro ADME
# experimental.setup: mouse, plasma, 1 h, 10 μM
// return numeric value only (unit: %, not printed)

Below, 3 molecules whose answers are already recorded.
molecule: CC(C)c1cc(-c2nnc(O)n2-c2ccc(N3CCN(C(=O)c4ccc(COC(=O)Nc5cccc6c5CN(C5CCC(=O)NC5=O)C6=O)cc4)CC3)cc2)c(O)cc1O (stereo not drawn) [SDC-TRAP-0156]
% Remaining (%): 90.3
//
molecule: CC(C)c1cc(-c2nnc(O)n2-c2ccc(CN3CCN(C(=O)c4ccc(COC(=O)Nc5cccc6c5CN(C5CCC(=O)NC5=O)C6=O)cc4)CC3)c(F)c2)c(O)cc1O (stereo not drawn) [SDC-TRAP-0157]
% Remaining (%): 81.4
//
molecule: CC(C)c1cc(-c2nnc(O)n2-c2ccc(CN3CCN(C(=O)COC(=O)Nc4cccc5c4CN(C4CCC(=O)NC4=O)C5=O)CC3)cc2)c(O)cc1O (stereo not drawn) [SDC-TRAP-0121]
% Remaining (%): 89.1

Asked: Need % Remaining of CCNC(=O)c1nnc(-c2cc(C(C)C)c(O)cc2O)n1-c1ccc(OC2CCN(C(=O)Oc3c(C)cc(COC(=O)Nc4cccc5c4CN(C4CCC(=O)NC4=O)C5=O)cc3C)CC2)cc1 (stereo not drawn) [SDC-TRAP-0187] , thanks.
Given back: 102

Asked: What % Remaining value was documented for this molecule, CCNC(=O)c1nnc(-c2cc(C(C)C)c(O)cc2O)n1-c1ccc(CN2CCC(C(=O)N3CCC[C@H]3C(=O)Nc3cccc4c3CN(C3CCC(=O)NC3=O)C4=O)CC2)cc1 (stereo partly drawn) [SDC-TRAP-0164] ?
Given back: 98.0

Asked: Entry under review: CCNC(=O)c1nnc(-c2cc(C(C)C)c(O)cc2O)n1-c1ccc(CN2CCC(C(=O)N3CCN(c4cc(C)c(OC(=O)Nc5cccc6c5CN(C5CCC(=O)NC5=O)C6=O)c(C)c4)CC3)CC2)cc1 (stereo not drawn) [SDC-TRAP-0195] . Reported % Remaining?
Given back: 98.4
